Target: human Dopamine Transporter (Homo sapiens, UniProt Q01959)
Construct: host or cells: CHO
Sequence (Q01959 whole entry): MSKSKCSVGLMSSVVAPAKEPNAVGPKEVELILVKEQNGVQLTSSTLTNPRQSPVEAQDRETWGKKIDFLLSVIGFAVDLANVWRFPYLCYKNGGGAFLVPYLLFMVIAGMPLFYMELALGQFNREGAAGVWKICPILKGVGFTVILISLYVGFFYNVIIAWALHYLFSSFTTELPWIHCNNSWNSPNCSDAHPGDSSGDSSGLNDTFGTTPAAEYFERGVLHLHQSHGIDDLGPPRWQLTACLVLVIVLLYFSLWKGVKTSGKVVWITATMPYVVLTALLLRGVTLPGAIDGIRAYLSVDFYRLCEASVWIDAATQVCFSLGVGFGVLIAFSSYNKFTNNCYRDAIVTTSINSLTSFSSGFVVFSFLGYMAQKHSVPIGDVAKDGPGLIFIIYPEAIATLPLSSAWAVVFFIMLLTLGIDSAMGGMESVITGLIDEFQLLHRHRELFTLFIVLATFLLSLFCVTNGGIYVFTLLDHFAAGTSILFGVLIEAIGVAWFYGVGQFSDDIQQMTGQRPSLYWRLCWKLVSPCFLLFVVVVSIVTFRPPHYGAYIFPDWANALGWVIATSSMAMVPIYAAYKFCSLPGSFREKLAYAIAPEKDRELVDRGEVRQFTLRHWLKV
Experiment: Human dopamine reuptake transporter (DAT) inhibition functional study, ASP+ uptake in CHO cells
Assay type: cell-based
Conditions: at 10,000 nM, 10 μM ASP+, 1 h, CHO cells stably expressing human DAT
Each item that follows carries a reported inhibition at 10 µM.
Kindly provide the numeric value in % only, without the unit symbol.

Examples from the recorded data:
compound	target-system	obs-value
CNC(C)(c1ccccc1)C1CCCC1 (stereo not drawn)	human Dopamine Transporter (Homo sapiens, UniProt Q01959)	18.2
CC(C)NC(C)(c1ccccc1)C1CCCC1 (stereo not drawn)	human Dopamine Transporter (Homo sapiens, UniProt Q01959)	39.2
NC(c1ccccc1)(C1CCCC1)C1CCC1 (stereo not drawn)	human Dopamine Transporter (Homo sapiens, UniProt Q01959)	24.1
NC(c1ccccc1)C1CCCCC1 (stereo not drawn)	human Dopamine Transporter (Homo sapiens, UniProt Q01959)	17.9

The compound listed as CCC(N)(c1ccccc1)C1CCCC1 (stereo not drawn) shows inhibition at 10 µM equal to 24.3

The compound listed as NC(c1ccccc1)(C1CCCC1)C1CC1 (stereo not drawn) shows inhibition at 10 µM equal to 1.3

###

Molecular target: NMDAR
Assay: NMDA receptor [3H]-MK-801 competition radioligand binding in rat forebrain
Conditions: [3H]-MK-801 1 nM competition, 1 mM glutamate, 0.1 mM glycine, pH 7.4, 2 h ambient, N = 1-4
experimental-readout: NMDAR binding affinity pKi (mean ± SEM)

compound	obs-value
NC(c1ccccc1)C1CCCC1 (stereo not shown)	< 5.00
COc1cccc(C(C)(N)C2CCCC2)c1 (stereo not shown)	6.82 ± 0.039
CC(NC1CCC1)(c1ccccc1)C1CCCC1 (stereo not shown)	8.06 ± 0.021
NC(c1ccccc1)C1CCCCC1 (stereo not shown)	4.97 ± 0.054
CC(N)(c1ccccc1)C1CCCC1 (stereo not shown)	7.11 ± 0.041
CCNC(C)(c1ccccc1)C1CCCC1 (stereo not shown)	6.93 ± 0.073

The compound listed as NC(CC1CCC1)(c1ccccc1)C1CCCC1 (stereo not shown) shows NMDAR binding affinity pKi (mean ± SEM) equal to 5.80 ± 0.095

The compound listed as CC(N)(c1ccccc1)C1CCCCC1 (stereo not shown) shows NMDAR binding affinity pKi (mean ± SEM) equal to 6.09 ± 0.120

The compound listed as NC(c1ccccc1)(C1CCCC1)C1CC1 (stereo not shown) shows NMDAR binding affinity pKi (mean ± SEM) equal to 6.23 ± 0.046

The compound listed as C=CCC(N)(c1ccccc1)C1CCCC1 (stereo not shown) shows NMDAR binding affinity pKi (mean ± SEM) equal to 5.89 ± 0.072

The measured values listed here are drawn from patent US20260347330A1.
